Reference source for all entries: patent US20210206856A1

Study system: T1, mouse MAdCAM expressed on cells (mouse, UniProt Q61826 22-405)
T1 construct: whole, on cells
T1 sequence (looked up): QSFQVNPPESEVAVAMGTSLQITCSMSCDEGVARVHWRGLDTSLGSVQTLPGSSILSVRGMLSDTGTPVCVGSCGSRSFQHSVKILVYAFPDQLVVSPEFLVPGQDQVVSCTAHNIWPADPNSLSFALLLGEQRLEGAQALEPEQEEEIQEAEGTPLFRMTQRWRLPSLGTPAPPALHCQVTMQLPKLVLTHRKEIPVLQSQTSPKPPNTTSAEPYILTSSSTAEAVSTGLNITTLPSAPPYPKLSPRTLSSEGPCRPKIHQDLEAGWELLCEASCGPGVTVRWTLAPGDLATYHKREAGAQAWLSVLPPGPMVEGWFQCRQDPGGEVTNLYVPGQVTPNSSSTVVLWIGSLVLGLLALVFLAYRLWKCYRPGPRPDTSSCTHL
Measurement description: cell binding
Metric name: binding result

INSERT INTO measurements (binder, metric_name, measured_value) VALUES
  ('MAdCAM Antibody Table 2 Clone 34 (antibody, human IgG1, V domains shown) VH: QVQLVQSGAEVKKPGASVKVSCKASGYTFTGYYIHWVRQAPGQGLEWMGWMNPNSGNTGYAQKFQGRVTMTRDTSTSTVYMELSSLRSEDTAVYYCARDPGFLGYCSGGSCYDGWFDPWGQGTLVTVSS VL: DIQMTQSPSSLSASVGDRVTITCRASQSISSYLHWYQQKPGKAPKLLIYAASSLQSGVPSRFSGSGSGTDFTLTISSLQPEDFATYYCQQSYTAPYTFGQGTKLEIK', 'binding result', 'no binding'),
  ('MAdCAM Antibody Table 2 Clone 73 (antibody, human IgG1, V domains shown) VH: QVQLVQSGAEVKKPGASVKVSCKASGYTFTSNYVHWVRQAPGQGLEWMGRINPHSGDTSYAQKFQGRVTMTRDTSTSTVYMELSSLRSEDTAVYYCARAGQLWSDWYFDLWGRGTLVTVSS VL: DIQMTQSPSSLSASVGDRVTITCQASQDIRNYLNWYQQKPGKAPKLLIYAATALRTGVPSRFSGSGSGTDFTLTISSLQPEDFATYYCQQSYSHPLTFGQGTKVEIK', 'binding result', 'no binding');
